assayed target: DNA repair protein RAD52 homolog (Homo sapiens) (UniProt P43351)
Sequence (P43351 whole entry, looked up): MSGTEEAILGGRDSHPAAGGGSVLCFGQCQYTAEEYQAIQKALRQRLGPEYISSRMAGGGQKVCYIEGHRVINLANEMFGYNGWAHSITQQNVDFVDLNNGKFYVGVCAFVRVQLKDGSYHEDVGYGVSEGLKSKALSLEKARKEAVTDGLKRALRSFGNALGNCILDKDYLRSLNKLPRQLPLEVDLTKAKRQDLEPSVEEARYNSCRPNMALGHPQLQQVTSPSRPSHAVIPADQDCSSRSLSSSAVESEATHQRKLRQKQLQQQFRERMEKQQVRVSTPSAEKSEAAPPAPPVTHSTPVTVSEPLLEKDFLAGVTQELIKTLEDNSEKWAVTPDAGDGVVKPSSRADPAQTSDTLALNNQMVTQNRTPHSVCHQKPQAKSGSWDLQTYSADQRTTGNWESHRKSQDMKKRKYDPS
assay text: RAD52 DNA annealing inhibitors, primary screen, biochemical, FRET, single point, set 2 (AID 651710)
reported conditions: recombinant RAD52 DNA annealing, FRET fluorescence; at 18.7 µM; stronger effect = higher value
The whole screen tested about 360,000 compounds, of which about 1,600 (0.44%) were called active. The list comes from a sample in which actives are over-represented; it also holds close analogues and randomly drawn compounds.
observed property: inhibition (%)
Write the value in % as a bare number.

Entry Cc1c(CCOC(=O)c2cc([N+](=O)[O-])ccc2Cl)sc[n+]1CCCCS(=O)(=O)[O-] , inhibition reported as -6.18

Documented inhibition of CC=Cc1ccc2n(c1=O)C[C@@H]1[C@@H](CO)[C@H](C(=O)NCCCN3CCOCC3)[C@H]2N1Cc1cocn1 (mixture of isomers) : -8.14

Entry under test: O=C(Cc1ccccn1)N[C@H]1CC[C@@H](CC(=O)N2CCCCC2)O[C@@H]1CO . Its inhibition was -3.74

Looking up CC(=O)Nc1ccc(Nc2c3ccccc3nc3ccccc23)cc1 , I see its inhibition listed as 91.2

The reported numbers originate from PubChem BioAssay AID651710.
